Test: Ratio of drug level in brain to plasma in Sprague-Dawley rat at 3 umol/kg, iv
Assay type: ADME
Details: read-out: BPR
measured-parameter: Kp

smiles_input=Cc1cccc(C)c1C(=O)N[C@H](c1ccccc1)C12CCC(CC1)CN2C measured_result=0.2

###

Assay: Equilibrium solubility of the compound in phosphate buffer at pH 7.4 by UV-HPLC analysis
Type: physicochemical
measured-parameter: solubility thermodynamic

smiles_input=Cc1cccc(C)c1C(=O)N[C@H](c1ccccc1)C12CCC(CC1)CN2C measured_parameter="solubility thermodynamic" measured_result="414 µM"
smiles_input=CN1CC2CCC1([C@H](NC(=O)c1c(Cl)cccc1Cl)c1ccccc1)CC2 measured_parameter="solubility thermodynamic" measured_result="> 500 µM"
smiles_input=Cc1ccnc(C)c1C(=O)N[C@H](c1ccccc1)C12CCC(CC1)CN2C measured_parameter="solubility thermodynamic" measured_result="373 µM"
smiles_input=CN1CC2CCC1([C@H](NC(=O)c1c(Cl)cncc1Cl)c1ccccc1)CC2 measured_parameter="solubility thermodynamic" measured_result="481 µM"
smiles_input=CN1CC2CCC1([C@@H](NC(=O)c1cccc(C(F)(F)F)c1Cl)c1ccccc1)CC2 measured_parameter="solubility thermodynamic" measured_result="> 500 µM"
smiles_input=CN1CC2CCC1([C@H](NC(=O)c1ccncc1Br)c1ccccc1)CC2 measured_parameter="solubility thermodynamic" measured_result="> 500 µM"
smiles_input=CN1CC2CCC1([C@H](NC(=O)c1c(Cl)ccnc1Cl)c1ccccc1)CC2 measured_parameter="solubility thermodynamic" measured_result="> 500 µM"
smiles_input=CSc1ncccc1C(=O)N[C@H](c1ccccc1)C12CCC(CC1)CN2C measured_parameter="solubility thermodynamic" measured_result="> 500 µM"
smiles_input=CN1CCCC[C@H]1[C@@H](NC(=O)c1cccc(C(F)(F)F)c1Cl)c1ccccc1 measured_parameter="solubility thermodynamic" measured_result="124 µM"
smiles_input=CN1CC2CCC1([C@H](NC(=O)c1ccnc(C(F)(F)F)c1F)c1ccccc1)CC2 measured_parameter="solubility thermodynamic" measured_result="> 500 µM"

###

Assay: Tmax in Sprague-Dawley rat at 9 umol/kg, po
Type: ADME, organism-based
Details: in vivo
measured-parameter: Tmax (h)

smiles_input=Cc1cccc(C)c1C(=O)N[C@H](c1ccccc1)C12CCC(CC1)CN2C measured_result=1

###

Test: Oral bioavailability in Sprague-Dawley rat at 9 umol/kg
Assay type: ADME, organism-based
Conditions: in vivo
measured-parameter: bioavailability (%)

smiles_input=Cc1cccc(C)c1C(=O)N[C@H](c1ccccc1)C12CCC(CC1)CN2C measured_parameter=bioavailability measured_result=105

###

Assay: Equilibrium solubility of the compound in phosphate buffer at pH 7.4 by UV-HPLC analysis
Format: physicochemical
measured-parameter: solubility thermodynamic (µM)

smiles_input=CN1CC2CCC1([C@H](NC(=O)c1cccc(C(F)(F)F)c1Cl)c1ccccc1)CC2 measured_parameter="solubility thermodynamic" censoring_sign=> measured_result=482
smiles_input=COc1cncc(Cl)c1C(=O)N[C@H](c1ccccc1)C12CCC(CC1)CN2C measured_parameter="solubility thermodynamic" censoring_sign=> measured_result=500
smiles_input=COc1cccc(OC)c1C(=O)N[C@H](c1ccccc1)C12CCC(CC1)CN2C measured_parameter="solubility thermodynamic" censoring_sign== measured_result=495
smiles_input=CN1CC2CCC1([C@H](NC(=O)c1cccc(Cl)c1Cl)c1ccccc1)CC2 measured_parameter="solubility thermodynamic" censoring_sign== measured_result=493
smiles_input=CN1CC2CCC1([C@H](NC(=O)c1ccnc(Cl)c1Cl)c1ccccc1)CC2 measured_parameter="solubility thermodynamic" censoring_sign== measured_result=498
smiles_input=CN1CC2CCC1([C@H](NC(=O)c1c(N)cccc1Cl)c1ccccc1)CC2 measured_parameter="solubility thermodynamic" censoring_sign== measured_result=462
